- SYSTEM UNDER TEST: CD3 epsilon/gamma heterodimer (Homo sapiens, UniProt P07766;P09693 P07766:23-126,P09693:23-116)
- Sequence (P07766 23-126, chain 1 of 2): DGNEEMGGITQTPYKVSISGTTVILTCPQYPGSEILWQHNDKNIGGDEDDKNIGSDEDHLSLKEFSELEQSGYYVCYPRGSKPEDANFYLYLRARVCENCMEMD
- Sequence (P09693 23-116, chain 2 of 2): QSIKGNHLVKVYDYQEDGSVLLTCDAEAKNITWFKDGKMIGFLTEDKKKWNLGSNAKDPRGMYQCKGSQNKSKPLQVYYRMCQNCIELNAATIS
- ASSAY TEXT: SPR; steady state; 43.6 nM (Table 3); kinetic 2.8 nM (Table 6)
- PROTOCOL CONDITIONS: tags: C-terminal human IgG1 Fc fusion, AcroBiosystems; chain copies: heterodimer 1:1 (inferred); label: 5'-biotin-TEG
OUTCOME MEASURE: Kd (nM)
Answers are plain numbers, in nM.

The binder listed as CELTIC_21 (ssDNA) DNA: TAGGGAAGAGAAGGACATATGATGGTCGGGTGCTACTGAGCGATTGGCTTTCCGGACTGGGGATTGACTAGTACATGACCACTTGA has a reported Kd of 56.4

From: patent US20220251562
